Molecular target: DNMT2 (Homo sapiens)
Construct: made in house
Sequence (O14717 whole entry): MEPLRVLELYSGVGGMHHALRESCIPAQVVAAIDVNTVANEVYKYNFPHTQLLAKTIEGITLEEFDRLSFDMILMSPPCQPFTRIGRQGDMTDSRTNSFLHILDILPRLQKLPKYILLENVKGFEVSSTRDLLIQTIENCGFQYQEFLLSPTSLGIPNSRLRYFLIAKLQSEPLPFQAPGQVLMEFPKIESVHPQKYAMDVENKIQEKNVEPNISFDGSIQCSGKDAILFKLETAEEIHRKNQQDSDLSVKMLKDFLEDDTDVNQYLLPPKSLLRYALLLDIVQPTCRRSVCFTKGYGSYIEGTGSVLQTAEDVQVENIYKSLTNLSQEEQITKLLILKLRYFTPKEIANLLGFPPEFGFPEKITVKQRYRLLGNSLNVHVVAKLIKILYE
Assay: DNMT2 fluorescence polarization (FP) FTAD displacement assay
Assay type: binding
Settings: DNMT2 FP assay, FTAD tracer
pKd: −log10 of the molar value.

{"compound": "CCCCC(CC)CNC(=N)NC(=N)NCCCCCCNC(=N)NC(=N)NCC(CC)CCCC (stereo not shown) [Cpd 3, alexidine]", "target.entity": "DNMT2 (Homo sapiens)", "pKd": 3.44}

* * *

Target protein (sequence): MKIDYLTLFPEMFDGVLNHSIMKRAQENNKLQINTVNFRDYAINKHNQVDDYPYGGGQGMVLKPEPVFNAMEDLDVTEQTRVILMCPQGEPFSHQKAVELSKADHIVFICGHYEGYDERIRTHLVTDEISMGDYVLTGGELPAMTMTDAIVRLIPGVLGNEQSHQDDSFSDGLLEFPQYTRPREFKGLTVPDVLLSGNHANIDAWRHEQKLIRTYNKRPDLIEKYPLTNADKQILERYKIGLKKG
pIC50: −log10 of the molar value.

{"molecule": "O=c1nc[nH]c2scc(-c3ccccc3)c12 [phenylthieno-pyrimidinone, 5-phenylthieno[2,3-d]pyrimidin-4(1H)-one]", "pIC50": 5.07}

Recorded values, source paper PMC11790956.
